# System: KM12 colon
# assay_protocol: NCI tumour cell line growth inhibition, 48 h; in the data active means GI50 below about 0.43 µM; inactive means the rest
Tick one outcome: active, inactive

Short answer needed: outcome of this test for COc1ccc(Nc2ncccc2/C=C/C(=O)c2cc(OC)c(OC)c(OC)c2)cc1 ?
inactive

Short answer needed: outcome of this test for CC1=C(C(=O)Nc2ccc3[nH]ncc3c2)C(c2ccc(F)cc2)NC(=O)N1 (centres undefined) ?
inactive

Short answer needed: outcome of this test for N#Cc1c2ccccc2c2n1-c1ccccc1OC(c1ccccc1)C2=O (centres undefined) ?
inactive

Short answer needed: outcome of this test for O=c1[nH]cnc2c1nnn2C1OC(CO)C(O)C1O (centres undefined) ?
inactive

Short answer needed: outcome of this test for N#Cc1cccc(C(=O)c2cnn(-c3ccc(F)cc3)c2N)c1 ?
inactive

Short answer needed: outcome of this test for NC(=O)C(Br)CBr (centres undefined) ?
inactive

Short answer needed: outcome of this test for COc1ccc(-c2nsc3c2NC(=O)CC3c2ccc3c(c2)OCO3)cc1 (centres undefined) ?
inactive

Short answer needed: outcome of this test for COC(=O)Nc1nc2ccc(Oc3ccc(NC(=O)Nc4cccc(Br)c4)cc3)cc2[nH]1 ?
active

Short answer needed: outcome of this test for COc1ccc(Nc2ccnc(NCCNc3ccnc4cc(Cl)ccc34)n2)cc1 ?
inactive

* * *

Answer each item with its documented TGI.
# Tested on: OVCAR-5 ovarian
# assay_protocol: NCI tumour cell line growth inhibition, 48 h
Answer in µM, number only, no unit symbol.

What does the data say about its TGI? Entry: O=C1c2ccccc2C(=O)c2c1ccc1c2N=C(c2ccc(F)cc2)CC(c2ccc(Cl)c(Cl)c2)N1 (stereo not drawn)
28

What does the data say about its TGI? Entry: CC1(C)CN(c2ccccc2)C(=O)C1OC(=O)[C@@]1(C)C[C@@H]2C=C[C@H]1C2 (stereo partly drawn)
56.6

What does the data say about its TGI? Entry: CC1CC[C@@]2(OC1)O[C@H]1C[C@H]3[C@@H]4CC[C@H]5C[C@@H](OC6OC(CO)C(OC7OC(CO)C(OC8OC(CO)C(O)C(OC9OC(C)C(OC%10OC(C)C(O)C(O)C%10O)C(O)C9O)C8OC8OCC(O)C(O)C8O)C(O)C7O)C(O)C6O)CC[C@]5(C)[C@H]4CC(=O)[C@]3(C)[C@H]1[C@@H]2C (stereo partly drawn)
40.3

What does the data say about its TGI? Entry: CCN(CC)CCOc1ccc(Nc2ncc3cc(-c4c(Cl)cccc4Cl)c(=O)n(CCOC)c3n2)cc1
7.09

What does the data say about its TGI? Entry: CNc1nc(C)c(-c2nc(Nc3cccc(S(N)(=O)=O)c3)ncc2F)s1
15.1

What does the data say about its TGI? Entry: NS(=O)(=O)c1ccc(Nc2c3ccccc3nc3c(C(=O)NCCCN(CCO)CCO)cccc23)cc1
98.4

What does the data say about its TGI? Entry: N#CC(C#N)=Cc1c(O)ccc2ccccc12
31.7

What does the data say about its TGI? Entry: COc1ccc(Nc2ccnc(NCCNc3ccnc4cc(Cl)ccc34)n2)cc1
7.13

* * *

# Tested on: SNB-75 CNS
# assay_protocol: NCI tumour cell line growth inhibition, 48 h; in the data active = GI50 below about 0.43 µM; inactive = the rest
Tick one outcome: active, inactive

Short answer needed: outcome of this test for OCCCCC#Cc1ccccc1C#Cc1ccccc1F ?
inactive

Short answer needed: outcome of this test for COC(=O)Nc1nc2ccc(Oc3ccc(NC(=O)Nc4cccc(Br)c4)cc3)cc2[nH]1 ?
inactive

Short answer needed: outcome of this test for CN(C)/C=C/c1nnnn1-c1ccc(Cl)cc1 ?
inactive

Short answer needed: outcome of this test for COc1ccc(-c2nsc3c2NC(=O)CC3c2ccc3c(c2)OCO3)cc1 (stereo not given) ?
inactive

Short answer needed: outcome of this test for O=C(Nc1ccc(Cl)cc1)c1cc2c(cc1O)[nH]c1ccccc12 ?
inactive

Short answer needed: outcome of this test for CN(C)c1ccc(C(=O)c2ccc(N(C)C)c(N)c2)cc1N ?
inactive

Short answer needed: outcome of this test for O=CN1N=C(c2ccc(Nc3ccnc4cc(Cl)ccc34)cc2)CC1c1ccccc1 (stereo not given) ?
inactive

Short answer needed: outcome of this test for CCCCCCCCCCCCCC[P+](CCCCCC)(CCCCCC)CCCCCC ?
active

Short answer needed: outcome of this test for CNC(=O)c1c(NC(=O)c2cccc(C(F)(F)F)c2)sc2c1CCC(=O)C2 ?
inactive

Short answer needed: outcome of this test for C[C@]12CC/C(=N\N)C[C@@H]1CC[C@@H]1[C@@H]2CC[C@]2(C)/C(=N/N)CC[C@@H]12 ?
inactive

Short answer needed: outcome of this test for Cc1ccccc1S(=O)(=O)N1[C@H](c2ccc(Cl)cc2)C(C(=O)N[C@@H](Cc2ccccc2)C(N)=O)=C[C@@H]1C(C)(C)C ?
inactive

Short answer needed: outcome of this test for CSc1ccc(-c2cc(-c3ccc(NC(=O)CCCN4CCCC4)cc3)nc(-c3ccc(NC(=O)CCCN4CCCC4)cc3)c2)cc1 ?
inactive

Short answer needed: outcome of this test for CCN(CC)c1ccc(N=C2C=C(C(=O)Nc3ccc(S(C)(=O)=O)cc3)C(=O)c3ccccc32)c(C)c1 ?
inactive

Short answer needed: outcome of this test for COc1cc(N=Nc2ccccc2)cc(/C=N\[N-]C(N)=S)c1[O-].COc1cc(N=Nc2ccccc2)cc(/C=N\[N-]C(N)=S)c1[O-].[Fe+4] ?
inactive

Short answer needed: outcome of this test for N#Cc1cccc(C(=O)c2cnn(-c3ccc(F)cc3)c2N)c1 ?
inactive
